Below is a list of entries, each paired with its recorded TF-ED50 value.
Tested on: mouse
Settings: i.v.; 52° C. water; central effects
Where a SMILES comes first, the peptide text is derived from it. [ ]: non-standard residue; d: D form. The star is where a group is joined. dNle = CCCC[C@@H](N)C(=O)O; NHPr = CCCN*
reported_metric: TF-ED50 (mg/kg)

* CC(C)C[C@@H](NC(=O)[C@@H](Cc1ccccc1)NC(=O)[C@H](N)Cc1ccccc1)C(=O)N[C@H](CCCN)C(=O)N1CCOCC1 [Peptide 57, H-D-Phe-D-Phe-D-Leu-D-Onn-Mor] | 5.6
* CCCC[C@@H](NC(=O)[C@@H](Cc1ccccc1)NC(=O)[C@H](N)Cc1ccccc1)C(=O)N[C@H](CCCNC(=N)N)C(=O)NCCC [Peptide 3, H-D-Phe-D-Phe-D-Nle-D-Arg-NHPr] (H-[dF][dF][dNle][dR]-NHPr) | 13.82
* CCCC[C@@H](NC(=O)[C@@H](Cc1ccccc1)NC(=O)[C@H](N)Cc1ccccc1)C(=O)N[C@H](CCCNC(=N)N)C(=O)NCC [Peptide 1, H-D-Phe-D-Phe-D-Nle-D-Arg-NHEt] (H-[dF][dF][dNle][dR]-NHEt) | 9.7

---

Below is a list of entries, each paired with its recorded pKi value.
Target: cloned human mu opioid (hMOR) receptor (Homo sapiens, UniProt P35372)
Sequence (P35372 whole entry): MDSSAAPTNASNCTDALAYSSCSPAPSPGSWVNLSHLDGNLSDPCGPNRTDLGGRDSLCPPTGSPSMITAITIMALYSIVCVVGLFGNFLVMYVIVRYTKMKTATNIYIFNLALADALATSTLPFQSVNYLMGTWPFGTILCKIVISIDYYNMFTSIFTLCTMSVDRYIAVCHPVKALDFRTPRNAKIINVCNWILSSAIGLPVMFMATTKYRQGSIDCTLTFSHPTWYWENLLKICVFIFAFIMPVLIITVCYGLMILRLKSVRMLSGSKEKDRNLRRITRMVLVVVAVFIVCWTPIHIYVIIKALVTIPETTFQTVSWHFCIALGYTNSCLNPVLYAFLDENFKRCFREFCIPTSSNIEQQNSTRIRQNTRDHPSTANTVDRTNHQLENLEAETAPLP
pKi: −log10 of the molar value. Where a SMILES comes first, the peptide text is derived from it. [ ]: non-standard residue; d: D form. The star is where a group is joined. dPhe(3,4-Cl2) = N[C@H](Cc1ccc(Cl)c(Cl)c1)C(=O)O; d2Thi = N[C@H](Cc1cccs1)C(=O)O; NH(4-picolyl) = c1cc(CN*)ccn1; dNle = CCCC[C@@H](N)C(=O)O; Morpholide = C1CN(*)CCO1; NEt2 = CCN(CC)*
reported_metric: pKi

- CCCC[C@@H](NC(=O)[C@@H](Cc1ccccc1)NC(=O)[C@H](N)Cc1ccccc1)C(=O)N[C@H](CCCNC(=N)N)C(=O)N(CC)CC [Peptide 7, H-D-Phe-D-Phe-D-Nle-D-Arg-N(Et2)] (H-[dF][dF][dNle][dR]-NEt2): 5.72
- CC(C)C[C@@H](NC(=O)[C@@H](Cc1ccc(Cl)c(Cl)c1)NC(=O)[C@H](N)Cc1cccs1)C(=O)N[C@H](CCCNC(=N)N)C(=O)NCc1ccncc1 [Peptide 60] (H-[d2Thi][dPhe(3,4-Cl2)][dL][dR]-{NH(4-picolyl)}): 6.11
- CC(C)C[C@@H](NC(=O)[C@@H](Cc1ccc(Cl)c(Cl)c1)NC(=O)[C@H](N)Cc1cccs1)C(=O)N[C@H](CCCNC(=N)N)C(=O)N1CCOCC1 [Peptide 61, H-D-Ala(2Thi)-D-3,4Cpa-D-Leu-D-Arg-Mor] (H-[d2Thi][dPhe(3,4-Cl2)][dL][dR]-Morpholide): 5.81

---

Below is a list of entries, each paired with its recorded % Antinociception 2 hr value.
System: conscious male ICR mice
Test: Mouse acetic acid writhing test (WT)
Assay type: in vivo
Conditions: submaximal effective dose i.v., 120 min pretreatment; percentage of the activity found at -5 min
Where a SMILES comes first, the peptide text is derived from it. [ ]: non-standard residue; d: D form. The star is where a group is joined. dNle = CCCC[C@@H](N)C(=O)O; NEt2 = CCN(CC)*; NHPr = CCCN*
reported_metric: % Antinociception 2 hr

* CCCC[C@@H](NC(=O)[C@@H](Cc1ccccc1)NC(=O)[C@H](N)Cc1ccccc1)C(=O)N[C@H](CCCNC(=N)N)C(=O)NCCC [Peptide 3, H-D-Phe-D-Phe-D-Nle-D-Arg-NHPr] (H-[dF][dF][dNle][dR]-NHPr) | 30.7%
* CCCC[C@@H](NC(=O)[C@@H](Cc1ccccc1)NC(=O)[C@H](N)Cc1ccccc1)C(=O)N[C@H](CCCNC(=N)N)C(=O)NCC [Peptide 1, H-D-Phe-D-Phe-D-Nle-D-Arg-NHEt] (H-[dF][dF][dNle][dR]-NHEt) | 75.5%
* CC(C)C[C@@H](NC(=O)[C@@H](Cc1ccccc1)NC(=O)[C@H](N)Cc1ccccc1)C(=O)N[C@H](CCCN)C(=O)N1CCOCC1 [Peptide 57, H-D-Phe-D-Phe-D-Leu-D-Onn-Mor] | 67.2%
* CCCC[C@@H](NC(=O)[C@@H](Cc1ccccc1)NC(=O)[C@H](N)Cc1ccccc1)C(=O)N[C@H](CCCNC(=N)N)C(=O)N(CC)CC [Peptide 7, H-D-Phe-D-Phe-D-Nle-D-Arg-N(Et2)] (H-[dF][dF][dNle][dR]-NEt2) | 36.8%

---

Below is a list of entries, each paired with its recorded pKi value.
Target: cloned human kappa (hKOR) receptor (Homo sapiens, UniProt P41145)
Construct: expressed in transfected cells; host or cells: HN9.10 (mouse hippocampal neuroblastoma), stably transfected
Sequence (P41145 whole entry): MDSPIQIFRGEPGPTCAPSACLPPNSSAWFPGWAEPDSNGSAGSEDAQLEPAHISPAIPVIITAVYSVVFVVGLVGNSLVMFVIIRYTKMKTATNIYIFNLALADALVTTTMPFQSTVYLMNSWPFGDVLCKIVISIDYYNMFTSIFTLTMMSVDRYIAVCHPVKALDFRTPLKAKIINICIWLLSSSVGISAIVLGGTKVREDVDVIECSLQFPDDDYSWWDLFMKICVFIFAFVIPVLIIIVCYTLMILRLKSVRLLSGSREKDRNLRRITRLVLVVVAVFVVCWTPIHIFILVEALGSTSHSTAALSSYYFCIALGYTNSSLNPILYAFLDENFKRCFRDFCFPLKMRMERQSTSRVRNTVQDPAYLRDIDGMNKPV
Test: biochemical
Assay type: binding
Conditions: read-out: Ki KOR
pKi: −log10 of the molar value. Where a SMILES comes first, the peptide text is derived from it. [ ]: non-standard residue; d: D form. The star is where a group is joined. NH(3-picolyl) = c1cncc(CN*)c1; dNle = CCCC[C@@H](N)C(=O)O; NHBn = c1ccc(CN*)cc1
reported_metric: pKi

* CCCC[C@@H](NC(=O)[C@@H](Cc1ccccc1)NC(=O)[C@H](N)Cc1ccccc1)C(=O)N[C@H](CCCNC(=N)N)C(=O)NCc1ccccc1 [Peptide 14, H-D-Phe-D-Phe-D-Nle-D-Arg-NHBzl] (H-[dF][dF][dNle][dR]-NHBn) | 9.36
* CCCC[C@@H](NC(=O)[C@@H](Cc1ccccc1)NC(=O)[C@H](N)Cc1ccccc1)C(=O)N[C@H](CCCNC(=N)N)C(=O)NCc1cccnc1 [Peptide 54, H-D-Phe-D-Phe-D-Nle-D-Arg-NH(3Pic)] (H-[dF][dF][dNle][dR]-{NH(3-picolyl)}) | 9.41

---

Below is a list of entries, each paired with its recorded % Antinociception 2 hr value.
Test system: conscious male ICR mice
Test: Mouse acetic acid writhing test (WT)
Format: in vivo
Conditions: submaximal effective dose i.v., 120 min pretreatment; percentage of the activity found at -5 min
Where a SMILES comes first, the peptide text is derived from it. [ ]: non-standard residue; d: D form. The star is where a group is joined. dPhe(3,4-Cl2) = N[C@H](Cc1ccc(Cl)c(Cl)c1)C(=O)O; d2Nal = N[C@H](Cc1ccc2ccccc2c1)C(=O)O; d2Thi = N[C@H](Cc1cccs1)C(=O)O; NH(4-picolyl) = c1cc(CN*)ccn1; dNle = CCCC[C@@H](N)C(=O)O; Morpholide = C1CN(*)CCO1; Piperidide = C1CCN(*)CC1; NHCH2CH2OH = OCCN*; X2 = OC1CCN(*)CC1; X1 = C1CN(*)CCS1; NHcPr = C1CC1N*
reported_metric: % Antinociception 2 hr (%)

• CCCC[C@@H](NC(=O)[C@@H](Cc1ccccc1)NC(=O)[C@H](N)Cc1ccccc1)C(=O)N[C@H](CCCNC(=N)N)C(=O)N1CCOCC1 [Peptide 6, H-D-Phe-D-Phe-D-Nle-D-Arg-Mor] (H-[dF][dF][dNle][dR]-Morpholide) = 52.7
• CC(C)C[C@@H](NC(=O)[C@@H](Cc1ccc2ccccc2c1)NC(=O)[C@H](N)Cc1cccs1)C(=O)N[C@H](CCCNC(=N)N)C(=O)N1CCOCC1 [Peptide 63, H-D-Ala(2Thi)-D-2Nal-D-Leu-D-Arg-Mor] (H-[d2Thi][d2Nal][dL][dR]-Morpholide) = 36.1
• CCCC[C@@H](NC(=O)[C@@H](Cc1ccccc1)NC(=O)[C@H](N)Cc1ccccc1)C(=O)N[C@H](CCCNC(=N)N)C(=O)NC [Peptide 2, H-D-Phe-D-Phe-D-Nle-D-Arg-NHMe] (H-[dF][dF][dNle][dR]-NHMe) = 29.8
• CCCC[C@@H](NC(=O)[C@@H](Cc1ccccc1)NC(=O)[C@H](N)Cc1ccccc1)C(=O)N[C@H](CCCNC(=N)N)C(=O)NC1CC1 [Peptide 5, H-D-Phe-D-Phe-D-Nle-D-Arg-NH(Cyp)] (H-[dF][dF][dNle][dR]-NHcPr) = 34.5
• CCCC[C@@H](NC(=O)[C@@H](Cc1ccccc1)NC(=O)[C@H](N)Cc1ccccc1)C(=O)N[C@H](CCCNC(=N)N)C(=O)NCCO [Peptide 9, H-D-Phe-D-Phe-D-Nle-D-Arg-NHhEt] (H-[dF][dF][dNle][dR]-NHCH2CH2OH) = 39.5
• CC(C)C[C@@H](NC(=O)[C@@H](Cc1ccc(Cl)c(Cl)c1)NC(=O)[C@H](N)Cc1cccs1)C(=O)N[C@H](CCCNC(=N)N)C(=O)NCc1ccncc1 [Peptide 60] (H-[d2Thi][dPhe(3,4-Cl2)][dL][dR]-{NH(4-picolyl)}) = 35.5
• CCNC(=O)[C@@H](CCCN)NC(=O)[C@@H](CC(C)C)NC(=O)[C@@H](Cc1ccccc1)NC(=O)[C@H](N)Cc1ccccc1 [Peptide 56, H-D-Phe-D-Phe-D-Leu-D-Orn-NHEt] = 60.2
• CCCC[C@@H](NC(=O)[C@@H](Cc1ccccc1)NC(=O)[C@H](N)Cc1ccccc1)C(=O)N[C@H](CCCNC(=N)N)C(=O)N1CCC(O)CC1 [Peptide 11, H-D-Phe-D-Phe-D-Nle-D-Arg-4-HyP] (H-[dF][dF][dNle][dR]-X2) = 36.9
• CCCC[C@@H](NC(=O)[C@@H](Cc1ccccc1)NC(=O)[C@H](N)Cc1ccccc1)C(=O)N[C@H](CCCNC(=N)N)C(=O)N1CCCCC1 [Peptide 12, H-D-Phe-D-Phe-D-Nle-D-Arg-Pip] (H-[dF][dF][dNle][dR]-Piperidide) = 53.6
• CCCC[C@@H](NC(=O)[C@@H](Cc1ccccc1)NC(=O)[C@H](N)Cc1ccccc1)C(=O)N[C@H](CCCNC(=N)N)C(=O)N1CCSCC1 [Peptide 10, H-D-Phe-D-Phe-D-Nle-D-Arg-Tmo] (H-[dF][dF][dNle][dR]-X1) = 47.5
• CCCC[C@@H](NC(=O)[C@@H](Cc1ccccc1)NC(=O)[C@H](N)Cc1ccccc1)C(=O)N[C@H](CCCNC(=N)N)C(=O)NCc1ccncc1 [Peptide 8, H-D-Phe-D-Phe-D-Nle-D-Arg-NH(4-Pic)] (H-[dF][dF][dNle][dR]-{NH(4-picolyl)}) = 45.1
